Target: T1, human NKp46 (full length, on cells) (human, UniProt O76036 22-304)
T1 construct: also called human NKp46-CHOK1
T1 sequence (O76036 22-304 Q82K): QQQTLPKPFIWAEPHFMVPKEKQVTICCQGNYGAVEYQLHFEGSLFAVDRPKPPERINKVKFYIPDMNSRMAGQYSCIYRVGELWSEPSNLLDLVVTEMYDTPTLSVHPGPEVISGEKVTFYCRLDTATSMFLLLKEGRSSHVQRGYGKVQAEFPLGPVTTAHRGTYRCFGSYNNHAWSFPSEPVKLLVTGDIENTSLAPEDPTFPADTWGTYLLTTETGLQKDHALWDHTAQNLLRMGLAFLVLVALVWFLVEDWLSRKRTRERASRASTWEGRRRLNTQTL
Assay: flow cytometry on human NKp46-CHOK1 cells
Description: The stable human NKp46-CHOK1 and cynomolgus monkey NKp46-CHOK1 cell lines obtained in Example 2 were cultured, the cells were digested with 0.25% pancreatic enzyme EDTA for about 5 minutes, and the digestion was terminated with the complete medium. After centrifugation at 1,500 rpm for 5 minutes, the supernatant was discarded, the precipitated cells were resuspended with PBS containing 1% BSA and counted. […]
Test readout: Top MFI
Reply: number alone, nothing else.

Worked examples, 4 binders total:
[[record]]
binder = "H2-PA27 humanized antibody (antibody, human IgG1, V domains shown, not shown: constant region of human IgG1) VH: QVQLVESGGGVVQPGRSLRLSCAASGRTESWYRMGWFRQAPGKGLEVVARISGDTNIKYYAGSVKGRFTISRDNSKNTLYLQMSSLRAEDTAVYYCAADRTGATWDYWGQGTLVTVSS"
measured_value = 6940

[[record]]
binder = "H1-PA45 humanized antibody (antibody, human IgG1, V domains shown, also called hPA45; not shown: constant region of human IgG1) VH: EVQLVESGGGLVQPGGSLRLSCAASGRTFSRLPMAWVRQAPGKGLEWVSAISWSGGSTYYADSMKGRFTISRDNSKNTLYLQMNSLRAEDTAVYYCAAVGDSAPYSATIVYTDARAYAYWGQGTLVTVSS"
measured_value = 5090

[[record]]
binder = "H3-PA27 humanized antibody (antibody, human IgG1, V domains shown, not shown: constant region of human IgG1) VH: QVQLVESGGGVVQPGRSLRLSCAASGRTESWYRMGWFRQAPGKGREVVARISGDTNIKYYAGSVKGRFTISRDNSKNTLYLQMSSLRAEDTAVYYCAADRTGATWDYWGQGTLVTVSS"
measured_value = 6820

[[record]]
binder = "H2-PA45 humanized antibody (antibody, V domains shown, not shown: constant region of human IgG1) VH: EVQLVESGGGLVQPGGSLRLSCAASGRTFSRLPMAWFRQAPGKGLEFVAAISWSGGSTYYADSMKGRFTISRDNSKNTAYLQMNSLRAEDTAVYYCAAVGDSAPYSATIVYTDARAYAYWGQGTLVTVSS"
measured_value = 5610


binder H5-PC11 humanized antibody (antibody, human IgG1, V domains shown, not shown: constant region of human IgG1) VH: EVQLVESGGGLVQPGGSLRLSCAPSPYSANSFSMAWFRQAPGKEREGIACIQAESGSTNVAPSVKGRFTISQDNSKNTLYLQMNSLRAEDTAVYYCAAFKRNVGGCELRPEHWRFWGQGTLVTVSS , Top MFI observed: 7370

Value of measured Top MFI for the entry H3-PC11 humanized antibody (antibody, human IgG1, V domains shown, not shown: constant region of human IgG1) VH: EVQLVESGGGLVQPGGSLRLSCAASPYSANSFSMAWFRQAPGKGREGVACIQAESGSTNVAPSVKGRFTISQDNSKNTLYLQMNSLRAEDTAVYYCAAFKRNVGGCELRPEHWRFWGQGTLVTVSS : 6830
